Molecular target: T1, human BCMA on 293F-BCMA cells (human, UniProt Q02223 1-184)
T1 construct: Stably expressed on 293F cells prepared in house; also called 293F cells expressing human BCMA; Full length human BCMA
T1 sequence: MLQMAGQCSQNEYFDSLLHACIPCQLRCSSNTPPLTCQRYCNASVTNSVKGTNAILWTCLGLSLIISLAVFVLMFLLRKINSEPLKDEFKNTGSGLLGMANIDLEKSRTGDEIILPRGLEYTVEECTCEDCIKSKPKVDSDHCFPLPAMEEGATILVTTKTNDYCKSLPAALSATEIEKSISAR
Experiment: cell based binding FACS on 293F cells expressing human BCMA, MFI
QUANTITY: log10(EC50) (log10 of the value in nM)

BINDER	log10(EC50)
mouse anti-BCMA monoclonal antibody B1H2 (antibody, V domains shown, Hybridoma-derived mouse mAb purified on Protein A; also called Mouse B1H2; mouse antibody B1H2) VH: EVQLQQSGPELVKPGASVKMSCKASGYTLTNYVMHWMKQKPGQGLEWIGFIIPFNDGTKYNEHFKGKATLTSDKSSNTAYMVLSSLTSEDSAVYYCARYDFEGYFDVWGAGTTVTVSS VL: DIQMTQTTSSLSASLGDRVTISCSASQDITNFLNWYQQKPDGTVKLLIYSTSRLHSGVPSRFSGSGSGTDYSLTISNLEPEDIATYYCQQYSNLPWTFGGGTNLEIK	-0.21
BCMA BM1, full-length antibody containing the BCMA-binding portion of GSK2857916 (antibody, human IgG1, kappa, V domains shown, Prepared in house from the full heavy and light chains; also called benchmark; positive control) VH: QVQLVQSGAEVKKPGSSVKVSCKASGGTFSNYWMHWVRQAPGQGLEWMGATYRGHSDTYYNQKFKGRVTITADKSTSTAYMELSSLRSEDTAVYYCARGAIYDGYDVLDNWGQGTLVTVSS VL: DIQMTQSPSSLSASVGDRVTITCSASQDISNYLNWYQQKPGKAPKLLIYYTSNLHSGVPSRFSGSGSGTDFTLTISSLQPEDFATYYCQQYRKLPWTFGQGTKLEIKR	0.95
huB1H2-V10 (antibody, human IgG1, kappa, V domains shown, Humanized IgG1/kappa; cell supernatant in the Octet assay, purified antibody in Biacore, ELISA and FACS) VH: QVQLVQSGAEVKKPGASVKVSCKASGYTLTNYVMHWVRQAPGQGLEWIGFIIPFNDGTKYNEHFKGRVTITSDTSISTAYMQLSSLRSEDTAVYYCARYDFEGYFDVWGQGTLVTVSS VL: DIQMTQSPSSLSASVGDRVTITCSASQDITNFLNWYQQKPGKAPKLLIYSTSRLHSGVPSRFSGSGSGTDFTLTISSLQPEDIATYYCQQYSNLPWTFGQGTKVEIKR	0.08
chimeric B1H2 antibody (antibody, human IgG1, kappa, V domains shown, Mouse variable domains fused to human IgG1 / kappa constant regions, made in 293F cells) VH: EVQLQQSGPELVKPGASVKMSCKASGYTLTNYVMHWMKQKPGQGLEWIGFIIPFNDGTKYNEHFKGKATLTSDKSSNTAYMVLSSLTSEDSAVYYCARYDFEGYFDVWGAGTTVTVSS VL: DIQMTQTTSSLSASLGDRVTISCSASQDITNFLNWYQQKPDGTVKLLIYSTSRLHSGVPSRFSGSGSGTDYSLTISNLEPEDIATYYCQQYSNLPWTFGGGTNLEIKR	-0.02
huB1H2-V33 (antibody, human IgG1, kappa, V domains shown, Humanized IgG1/kappa; cell supernatant in the Octet assay, purified antibody in Biacore, ELISA and FACS) VH: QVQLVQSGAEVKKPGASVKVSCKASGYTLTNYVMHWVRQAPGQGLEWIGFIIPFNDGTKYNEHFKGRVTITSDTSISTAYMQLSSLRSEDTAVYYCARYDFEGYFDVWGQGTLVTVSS VL: DIQMTQSPSSLSASVGDRVTITCSASQDITNFLNWYQQKPGKAPKLLIYSTSRLHSGVPSRFSGSGSGTDFTFTISSLQPEDIATYYCQQYSNLPWTFGQGTKVEIKR	-0.06

Recorded values, source patent US20230055711A1.
